# measured.on: β3 adrenergic receptor (β3AR-cc3.1 chimera) (Homo sapiens, UniProt P13945, E36A/M86V/I125V/E126W/Y224A/F341M/Y346L)
# Construct: gene ADRB3; Ala2 to Leu368 lacking Pro3 to Thr27, with Thermus thermophilus SRS antiparallel coiled coil cc3.1 inserted between Ala231 and Glu286 (replacing ICL3); N-terminal FLAG and C-terminal TwinStrep tags
# Sequence (P13945 2-368 E36A/M86V/I125V/E126W/Y224A/F341M/Y346L): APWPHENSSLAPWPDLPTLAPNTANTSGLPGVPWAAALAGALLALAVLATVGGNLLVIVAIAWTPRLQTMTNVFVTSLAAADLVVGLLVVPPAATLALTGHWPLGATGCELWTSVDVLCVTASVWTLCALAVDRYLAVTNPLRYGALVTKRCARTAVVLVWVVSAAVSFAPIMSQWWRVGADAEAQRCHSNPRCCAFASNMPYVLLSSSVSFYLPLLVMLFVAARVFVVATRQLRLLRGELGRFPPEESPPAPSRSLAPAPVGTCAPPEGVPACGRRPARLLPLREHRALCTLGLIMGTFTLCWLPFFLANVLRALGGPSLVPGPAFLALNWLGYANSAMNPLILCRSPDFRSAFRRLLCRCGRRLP
# protocol.description: radioligand saturation binding (SPA) on membranes of HEK-293S-GnTI- cells expressing β3AR-cc3.[…]
recorded.endpoint: pKd
pKd here: minus log base 10 of the concentration, concentration in moles per litre.

IN: Quick check: pKd of CCCc1ccccc1OC[C@@H](O)CNC(C)C [[3H]-dihydroalprenolol] ?
OUT: 6.82
